- TGT: HCV polymerase (Hepatitis C virus genotype 1b)
- Construct: (His)6 (C)
- MEASUREMENT_NOTES: biochemical
- CONDITION_NOTES: polymerase assay of Biological Example 1; read-out: NS5B polymerase IC50
METRIC_NAME: pIC50
Lab note: report pIC50 as minus log10 of the concentration in molar units, number only.

Input: Report pIC50, nothing else, for this compound: CNC(=O)c1c(-c2ccc(F)cc2)oc2nc(N(CCCC(=O)O)S(C)(=O)=O)c(I)cc12
Output: 6.95

Input: Report pIC50, nothing else, for this compound: CCc1cc2c(C(=O)NC)c(-c3ccc(F)cc3)oc2nc1N(CCN1CCN(C(=O)OC(C)(C)C)CC1)S(C)(=O)=O
Output: 6.37

Input: Report pIC50, nothing else, for this compound: CNC(=O)c1c(-c2ccc(F)cc2)oc2nc(N(C)S(C)(=O)=O)c(CCCN)cc12
Output: 6.27

Input: Report pIC50, nothing else, for this compound: CNC(=O)c1c(-c2ccc(C)cc2)oc2nc(N(CCCC(C)(C)C(=O)O)S(C)(=O)=O)c(C3CC3)cc12
Output: 9.00

Input: Report pIC50, nothing else, for this compound: CNC(=O)c1c(-c2ccc(C)cc2)oc2nc(N(CCCC(C)(CCOC)C(=O)O)S(C)(=O)=O)c(C3CC3)cc12 (stereo not shown)
Output: 8.52

Input: Report pIC50, nothing else, for this compound: CCc1cc2c(C(=O)NC)c(-c3ccc(F)cc3)oc2nc1N(CC1CCOCC1)S(C)(=O)=O
Output: 6.83

Input: Report pIC50, nothing else, for this compound: C=Cc1cc2c(C(=O)NC)c(-c3ccc(F)cc3)oc2nc1N(CCCCC(=O)OC)S(C)(=O)=O
Output: 7.24
